- Tested on: NF-κB
- Assay Explanation: NF-κB-Luciferase reporter assay in THP-1 NF-κB-Lucia cells
- Assay type: cell-based, human
- Experimental Parameters: at 20 μM; FIG. 5A; some values sourced from Baier et al. (2017) and Lolli et al. (2012)
Measurement Name: SAR summary: activity in NF-κB reporter assay and for CK2 kinase inhibition

{"Compound": "O=c1c(O)c(-c2ccc(O)c(O)c2)oc2cc(O)ccc12 [fisetin]", "Result": "active"}
{"Compound": "COc1ccc(C2CC(=O)c3c(OC)cc(OC)cc3O2)cc1 (stereo not drawn) [dTMF, 4′,5,7-trimethoxyflavanone]", "Result": "inactive"}
{"Compound": "O=c1cc(-c2ccc(O)c(O)c2)oc2cc(O)cc(O)c12 [luteolin]", "Result": "active"}
{"Compound": "O=c1c(O)c(-c2ccc(O)c(O)c2)oc2cc(O)cc(O)c12 [quercetin]", "Result": "active"}
{"Compound": "COc1ccc(-c2cc(=O)c3c(OC)cc(OC)cc3o2)cc1 [TMF, trimethoxyflavone]", "Result": "active"}
{"Compound": "COc1cc(-c2cc(=O)c3c(O)cc(O)cc3o2)ccc1O [CHR, Chrysoeriol]", "Result": "active"}
{"Compound": "O=c1c(O)c(-c2ccc(O)cc2)oc2cc(O)cc(O)c12 [kaempferol]", "Result": "active"}
{"Compound": "O=C1C[C@@H](c2ccc(O)cc2)Oc2cc(O)cc(O)c21 [NAR, Naringenin]", "Result": "inactive"}
{"Compound": "COc1cc([C@@H]2CC(=O)c3c(O)cc(O)cc3O2)ccc1O [dCHR, homoeryodictyol]", "Result": "inactive"}
